# assayed.system: S1P1 human receptor (Homo sapiens (Human))
# Sequence (P21453 whole entry): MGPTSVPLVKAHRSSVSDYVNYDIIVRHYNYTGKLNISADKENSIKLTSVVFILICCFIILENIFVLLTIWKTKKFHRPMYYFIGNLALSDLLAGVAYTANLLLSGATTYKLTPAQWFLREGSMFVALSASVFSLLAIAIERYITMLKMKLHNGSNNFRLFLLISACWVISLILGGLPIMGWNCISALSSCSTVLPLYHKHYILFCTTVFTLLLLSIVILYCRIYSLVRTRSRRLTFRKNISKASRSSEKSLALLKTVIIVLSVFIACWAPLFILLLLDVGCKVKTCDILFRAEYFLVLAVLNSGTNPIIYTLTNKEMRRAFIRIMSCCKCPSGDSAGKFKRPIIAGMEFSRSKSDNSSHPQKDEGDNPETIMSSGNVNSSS
# protocol.summary: S1P1 [35S]-GTPgamaS binding assay (agonist activity)
# Assay type: biochemical
# condition.info: GTPgamaS binding, agonist
Reported values of EC50 for individual entries
readout.kind: EC50 (µM)

> print(dat)
                           substance.smiles  readout.kind  unit  limit.sign  quantitative.result
1       CCCCCCCCc1ccc2c(c1)CCCN2CC(N)(CO)CO          EC50    µM           >                 0.86
2  CCCOc1ccc(-c2nc(-c3cccc4c3CCN4CC(N)(CO)CO)no2)cc1N          EC50    µM           =                0.088
3  CCCOc1ccc(-c2nc(-c3cccc4c3CCN4CC(N)(CO)CO)no2)cc1Cl          EC50    µM           =               0.0179
4  CCOc1ccc(-c2nc(-c3ccc(C4=CCN(CC(N)(CO)CO)CC4)cc3)no2)cc1OCC          EC50    µM           >                 2.06
5  CC(C)Oc1ccc(-c2nc(-c3ccc4c(c3)CCN4CC(N)(CO)CO)no2)cc1Cl          EC50    µM           =               0.0035
6  Cc1cc2cc(-c3nc(-c4cccc5c4CCN5CC(N)(CO)CO)no3)ccc2o1          EC50    µM           =                 1.42
7  NC(CO)(CO)CN1CCc2cc(CCc3ccc(-c4ccccc4C(F)(F)F)cc3)ccc21          EC50    µM           >                 2.13
8  NC(CO)(CO)CN1CCc2cc(OCc3ccc(-c4ccccc4C(F)(F)F)cc3)ccc2C1          EC50    µM           >                 3.24
9  CCCCCOc1ccc(-c2nc(-c3ccc4c(c3)CCN4CC(N)(CO)CO)no2)cc1Cl          EC50    µM           =               0.0438

====

# assayed.system: S1P1 human receptor (Homo sapiens (Human))
# protocol.summary: S1P1 [35S]-GTPgamaS binding assay (agonist activity)
# Type: biochemical
# condition.info: potency at S1P1 relative to S1P
Reported values of EC50S1P1/EC50S1P for individual entries
readout.kind: EC50S1P1/EC50S1P

> print(dat)
                           substance.smiles  limit.sign  quantitative.result
1        CCCCCCCCc1ccc2c(c1)CCN2CC(N)(CO)CO           =                  709
2  CCCCCOc1ccc(-c2nc(-c3ccc4c(c3)CCN4CC(N)(CO)CO)no2)cc1Cl           =                 5.93
3  Cl.NC(CO)(CO)CCc1ccc(CCc2ccc(C(=O)c3ccc(F)cc3)cc2)cc1           =                  557
4       CCCCCCCCc1ccc2c(c1)CCCN2CC(N)(CO)CO           >                 1000
5  NC(CO)(CO)CN1CCc2cc(OCc3cc4c(Cl)cc(Cl)cc4o3)ccc21           =                   23
6  NC(CO)(CO)CN1CCc2cc(OCc3ccc(-c4ccccc4C(F)(F)F)cc3)ccc2C1           >                 1000
7  CCCc1ccc(-c2nc(-c3cccc4c3CCN4CC(N)(CO)CO)no2)cc1CCC           =                 0.33
8  CCCOc1ccc(-c2nc(-c3cccc4c3CCN4CC(N)(CO)CO)no2)cc1Cl           =                  1.3
9     CCCCCCCCc1ccc2c(c1)CCN(CC(N)(CO)CO)C2           >                 1000

The values you see were collected from patent US9181182B2.
